These measurements were taken from patent US8618137B2.

tested on: Phytophthora infestans (the causal agent of tomato late blight); format: in vivo; conditions: sprayed 17 h after inoculation, test suspension 40 ppm (*), 100 = 100% disease control, 0 = no control
Marks after values point to notes of the source that are not given here.
Record form. Attribute: Test B2 rating (disease control). Fill in for each entry.

Q: Hello, please tell me recorded Test B2 rating (disease control) for this one: O=C(CONC(=O)C(F)(F)F)N1CCC(c2nc(C3=NOC(c4c(F)cccc4F)C3)cs2)CC1 (stereo not shown)
Result: 99* %

Q: Hello, please tell me recorded Test B2 rating (disease control) for this one: CC(C)=NOC(C(=O)N1CCC(c2nc(C3=NOC(c4c(F)cccc4F)C3)cs2)CC1)c1ccccc1 (mixture of isomers)
Result: 92* %

Q: Hello, please tell me recorded Test B2 rating (disease control) for this one: CC(CC(C)C)=NOCC(=O)N1CCC(c2nc(C3=NOC(c4c(F)cccc4F)C3)cs2)CC1 (racemic)
Result: 58* %

Q: Hello, please tell me recorded Test B2 rating (disease control) for this one: CCC(ON=C(C)C)C(=O)N1CCC(c2nc(C3=NOC(c4c(F)cccc4F)C3)cs2)CC1 (mixture of isomers)
Result: 99* %

Q: Hello, please tell me recorded Test B2 rating (disease control) for this one: CC(C)CC=NOCC(=O)N1CCC(c2nc(C3=NOC(c4c(F)cccc4F)C3)cs2)CC1 (racemic)
Result: 68* %

Q: Hello, please tell me recorded Test B2 rating (disease control) for this one: CC(C)C=NOCC(=O)N1CCC(c2nc(C3=NOC(c4c(F)cccc4F)C3)cs2)CC1 (racemic)
Result: 99* %

Q: Hello, please tell me recorded Test B2 rating (disease control) for this one: CC(C)=NOCCC(=O)N1CCC(c2nc(C3=NOC(c4c(F)cccc4F)C3)cs2)CC1 (racemic)
Result: 98* %
